Target: T1, human Trop-2-His protein (human, UniProt P09758 27-274)
T1 construct: extracellular domain; Assay paragraphs say only 'Trop-2-His'; also called hTrop-2; Kactus Cat #TRP-HM121; not shown: His tag
T1 sequence (looked up): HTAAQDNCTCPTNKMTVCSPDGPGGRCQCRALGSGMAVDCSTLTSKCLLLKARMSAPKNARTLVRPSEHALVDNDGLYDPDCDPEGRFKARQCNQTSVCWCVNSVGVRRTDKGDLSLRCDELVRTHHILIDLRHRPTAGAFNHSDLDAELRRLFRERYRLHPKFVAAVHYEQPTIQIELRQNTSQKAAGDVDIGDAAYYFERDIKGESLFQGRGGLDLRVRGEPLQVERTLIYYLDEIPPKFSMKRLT
Assay: BLI (Gator Plus), purified Ab on HFC probe
MEASURED QUANTITY: koff (s⁻¹)
Give a bare numeral; the unit s⁻¹ is implied.

10A9-2 (antibody, V domains shown) VH: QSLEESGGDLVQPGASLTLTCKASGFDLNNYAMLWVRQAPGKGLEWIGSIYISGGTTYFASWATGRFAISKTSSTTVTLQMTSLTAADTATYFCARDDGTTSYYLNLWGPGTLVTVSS VL: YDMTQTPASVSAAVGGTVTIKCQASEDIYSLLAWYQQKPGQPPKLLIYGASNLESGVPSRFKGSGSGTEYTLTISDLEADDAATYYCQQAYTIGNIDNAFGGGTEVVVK ... 0.00089
62E3 (antibody, V domains shown, Rabbit-derived clone; LEM construct: VH + rabbit IgG CH1 + human IgG1 CH2-CH3) VH: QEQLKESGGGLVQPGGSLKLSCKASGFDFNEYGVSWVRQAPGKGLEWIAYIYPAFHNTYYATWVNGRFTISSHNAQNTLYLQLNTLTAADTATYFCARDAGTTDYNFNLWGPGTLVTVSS VL: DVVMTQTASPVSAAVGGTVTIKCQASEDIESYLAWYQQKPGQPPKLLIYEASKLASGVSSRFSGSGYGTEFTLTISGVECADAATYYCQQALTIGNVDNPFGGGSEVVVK ... 0.000429
5D4-1 (antibody, V domains shown) VH: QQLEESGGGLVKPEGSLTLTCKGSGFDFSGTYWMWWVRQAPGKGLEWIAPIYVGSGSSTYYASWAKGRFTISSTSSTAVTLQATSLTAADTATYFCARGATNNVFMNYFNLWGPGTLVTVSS VL: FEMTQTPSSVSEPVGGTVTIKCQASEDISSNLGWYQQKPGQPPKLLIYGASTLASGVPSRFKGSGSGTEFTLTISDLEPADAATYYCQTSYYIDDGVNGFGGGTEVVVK ... 5.1e-05

Lookup: Give koff for 10A9 (antibody, V domains shown, Rabbit-derived clone; LEM construct: VH + rabbit IgG CH1 + human IgG1 CH2-CH3) VH: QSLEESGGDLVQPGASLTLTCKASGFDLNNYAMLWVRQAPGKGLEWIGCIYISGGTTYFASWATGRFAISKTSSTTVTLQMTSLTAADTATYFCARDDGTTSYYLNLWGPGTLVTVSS VL: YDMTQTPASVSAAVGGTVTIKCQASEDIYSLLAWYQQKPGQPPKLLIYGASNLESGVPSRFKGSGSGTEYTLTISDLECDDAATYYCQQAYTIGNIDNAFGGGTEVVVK
Found: 8.2e-05

Numbers sourced from patent US20250206841A1.
